Literature-derived IC50 for Serine protease 1 (Homo sapiens, UniProt P07477) follows.

Some solved entries appear below for comparison.
[[record]]
molecule = "Cc1ccc(-c2ccc3c(C)cc(Oc4ccc(C(=N)N)cc4)nc3c2)cc1"
measure = "IC50"
experimental_value = "4.2 µM"

[[record]]
molecule = "N=C(N)NCCCC(NC(=O)CN1CCN(S(=O)(=O)c2cccc3cccnc23)CC1=O)C(=O)c1nccs1 (stereo not drawn)"
measure = "IC50"
experimental_value = "0.002 µM"

[[record]]
molecule = "CC(C)[C@@H](NC(=O)c1cccc(C(=N)N)c1)C(=O)Nc1ccc(-c2ccccc2S(N)(=O)=O)cc1"
measure = "IC50"
experimental_value = "> 10 µM"

[[record]]
molecule = "N=C(N)N1CCCC(C[C@H](NC(=O)CN2C(=O)CN(CCCc3ccccc3)C(=O)[C@H]2C(c2ccccc2)c2ccccc2)C(=O)c2nccs2)C1 (stereo partly drawn)"
measure = "IC50"
experimental_value = "8.5 µM"

[[record]]
molecule = "N=C(N)c1cccc(OC(C(=O)Nc2ccc(-n3ccc(C(F)(F)F)n3)cc2)c2ccccc2)c1 (stereo not drawn)"
measure = "IC50"
experimental_value = "> 10 µM"


Q. Give the measured IC50 of COC(=O)c1cc2ccccc2cc1-n1nc(C)cc1C(=O)Nc1ccc(-c2ccccc2S(N)(=O)=O)cc1 .
A. > 11 µM

Q. Next molecule: Cc1cc(C(=O)Nc2ccc(C(=N)N(C)C)cc2F)n(-c2cc3ccccc3cc2F)n1
A. > 10 µM

Q. Next molecule: COc1ccc2ccc(S(=O)(=O)NC(Cc3cc4c(N)nccc4s3)C(=O)N3CCN(C)CC3)cc2c1 (stereo not drawn)
A. 13 µM

* * *

Literature-derived IC50 for UniProtKB P07477 follows.
Answer in nM, number only, no unit symbol.

[[record]]
molecule = "CC(C)(C)CC(=O)N[C@H](Cc1ccccc1)C(=O)N1CCC[C@H]1C(=O)N[C@@H](CCCN=C(N)N)C(=O)c1nc2ccccc2[nH]1"
system_under_test = "UniProtKB P07477"
experimental_value = 1010


Q. Give the measured IC50 of N=C(N)Nc1ccc(C(=O)Oc2ccc(Br)cc2)cc1 .
A. 3.9

Q. Next molecule: CNC(=O)[C@@H]1C[C@H](N2CCc3c(cccc3OCCOC)C2)CN1C(=O)c1ccc(CN)c(OC)c1
A. 8

* * *

Literature-derived pIC50 for Serine protease 1 (Homo sapiens) follows.
// field semantics: pIC50 = negative decimal log of concentration (mol/L)

Some solved entries appear below for comparison.
[[record]]
compound = "N=C(N)N1CCCC(C[C@H](NC(=O)CN2C(=O)CN(CCCc3ccccc3)C(=O)C2C(c2ccccc2)c2ccccc2)C(=O)c2nccs2)C1 (some centres undefined)"
experimental_value = 5.01

[[record]]
compound = "NCCCC[C@H](NC(=O)[C@@H]1CC[C@H]2CN(C(=O)CCc3ccccc3)CC(=O)N21)C(=O)c1nccs1"
experimental_value = 7.85

[[record]]
compound = "COc1cc2ccc(S(=O)(=O)NC(Cc3cc4c(N)nccc4s3)C(=O)N3CCC(C)CC3)cc2cc1OC (centres undefined)"
experimental_value = 5.40


Q. Give the measured pIC50 of N=C(N)Nc1ccc(C(=O)Oc2ccc(Cl)cc2)cc1 .
A. 8.09

Q. Next compound: Cc1cc(C(=O)N2C[C@@H](n3cc(C4CC4)nn3)C[C@H]2C(=O)NCC(c2ccccc2)c2ccccc2)ccc1CN
A. 6.96

Q. Next compound: CNC(=O)[C@@H]1C[C@H](N2CCc3c(cccc3OC)C2)CN1C(=O)c1ccc(CN)c(OC)c1
A. 7.00

Q. Next compound: N=C(N)c1cccc(OC(C(=O)Nc2ccc(-n3cnc(Cl)c3Cl)cc2)c2ccccc2)c1 (centres undefined)
A. 5.27

Q. Next compound: CC(C)(C)OC(=O)N[C@H](Cc1ccccc1)C(=O)N1CCC[C@@H]1C(=O)N[C@@H](C=O)CCCN=C(N)N
A. 5.75

Q. Next compound: CCN(CC)C(=O)c1cccc(-c2ccc3c(c2)[C@@H]2[C@@H](CCCCC(=N)N)C(=O)N(COC(C)=O)[C@H]2C3)c1
A. 4.44

Q. Next compound: CCOP(=O)(OCC)N1C(=O)[C@H](CCCCC(=N)N)[C@H]2c3ccc(-c4cccc(C(=O)N(CC)CC)c4)cc3C[C@@H]21
A. 5.77
